- Tested on: UACC-62
- test: NCI tumour cell line growth inhibition, 48 h
Active and inactive are the calls of the source. Rule as the data show it: active = GI50 up to about 1.1 µM and inactive = higher.
Below, each entry is listed alongside its reported GI50.

{"columns": ["compound", "GI50"],
 "data": [
  ["COc1nc(C(=O)O)c(Cl)c(OC)c1Cl", "> 100 µM (inactive)"],
  ["O=[N+]([O-])c1ccc(N2N=C(c3ccc(NCc4nc5ccccc5[nH]4)cc3)CC2c2ccco2)cc1 (centres undefined)", "19.5 µM (inactive)"],
  ["Clc1ncnc2c1nc(C#Cc1ccccc1)n2C1CCCCO1 (centres undefined)", "2.42 µM (inactive)"],
  ["CSc1c(C(=O)Nc2ccc(Cl)cc2)c(N)n(N)c(=O)c1C#N", "24.5 µM (inactive)"]
]}
